test system: K562; experiment: Cytotoxicity in human K562 cells assessed as reduction in cell viability incubated for 2 hrs by Cell-titer-blue assay; assay type: functional, cell-based; details: K562, 2 h
Lab note: anything with IC50 below 400 nM is marked MET; values at 400 nM or higher are marked NOT MET.

Some solved entries appear below for comparison.
| COMPOUND | LABEL VALUE |
| --- | --- |
| CC[C@@]1(O)C[C@H](O[C@H]2C[C@H](N)[C@H](O[C@H]3C[C@H](O)[C@H](O[C@H]4CCC(=O)[C@H](C)O4)[C@H](C)O3)[C@H](C)O2)c2c(cc3c(c2O)C(=O)c2c(O)cccc2C3=O)[C@H]1C(=O)OC | NOT MET |
| COc1cccc2c1C(=O)c1c(O)c3c(c(O)c1C2=O)C[C@@](O)(C(=O)CO)C[C@@H]3O[C@H]1C[C@H](N(C)C)[C@H](O[C@H]2C[C@H](O)[C@H](O)[C@H](C)O2)[C@H](C)O1 | NOT MET |
| COc1cccc2c1C(=O)c1c(O)c3c(c(O)c1C2=O)C[C@@](O)(C(=O)CO)C[C@@H]3O[C@H]1C[C@H](N)[C@H](O[C@H]2C[C@H](O)[C@H](O[C@H]3CCC(=O)[C@H](C)O3)[C@H](C)O2)[C@H](C)O1 | NOT MET |
| COc1cccc2c1C(=O)c1c(O)c3c(c(O)c1C2=O)C[C@@](O)(C(=O)CO)C[C@@H]3O[C@H]1C[C@H](N)[C@H](O)[C@H](C)O1 [DOXORUBICIN] | MET |
| CC[C@@]1(O)C[C@H](O[C@H]2C[C@H](N(C)C)[C@H](O[C@H]3C[C@H](O)[C@H](O)[C@H](C)O3)[C@H](C)O2)c2c(cc3c(c2O)C(=O)c2c(O)cccc2C3=O)[C@H]1C(=O)OC | MET |
| COc1cccc2c1C(=O)c1c(O)c3c(c(O)c1C2=O)C[C@@](O)(C(=O)CO)C[C@@H]3O[C@H]1C[C@H](N(C)C)[C@H](O[C@H]2C[C@H](O)[C@H](O[C@H]3CCC(=O)[C@H](C)O3)[C@H](C)O2)[C@H](C)O1 | MET |

Here is another compound to look at.
Threshold test, IC50 < 400 nM: CC[C@@]1(O)C[C@H](O[C@H]2C[C@H](N(C)C)[C@H](O[C@H]3C[C@H](O)[C@H](O[C@H]4CCC(=O)[C@H](C)O4)[C@H](C)O3)[C@H](C)O2)c2c(cc3c(c2O)C(=O)c2c(O)cccc2C3=O)[C@H]1C(=O)OC [ACLARUBICIN]
MET

###

biological target: DNA topoisomerase 2-alpha (Homo sapiens) (UniProt P11388); experiment: Induction of relocalization of GFP-tagged Topo2a (unknown origin) expressed in human MEL-JUSO cells at 10 uM incubated for 15 mins; format: cell-based; settings: filed as modulator
Sequence (P11388 whole entry): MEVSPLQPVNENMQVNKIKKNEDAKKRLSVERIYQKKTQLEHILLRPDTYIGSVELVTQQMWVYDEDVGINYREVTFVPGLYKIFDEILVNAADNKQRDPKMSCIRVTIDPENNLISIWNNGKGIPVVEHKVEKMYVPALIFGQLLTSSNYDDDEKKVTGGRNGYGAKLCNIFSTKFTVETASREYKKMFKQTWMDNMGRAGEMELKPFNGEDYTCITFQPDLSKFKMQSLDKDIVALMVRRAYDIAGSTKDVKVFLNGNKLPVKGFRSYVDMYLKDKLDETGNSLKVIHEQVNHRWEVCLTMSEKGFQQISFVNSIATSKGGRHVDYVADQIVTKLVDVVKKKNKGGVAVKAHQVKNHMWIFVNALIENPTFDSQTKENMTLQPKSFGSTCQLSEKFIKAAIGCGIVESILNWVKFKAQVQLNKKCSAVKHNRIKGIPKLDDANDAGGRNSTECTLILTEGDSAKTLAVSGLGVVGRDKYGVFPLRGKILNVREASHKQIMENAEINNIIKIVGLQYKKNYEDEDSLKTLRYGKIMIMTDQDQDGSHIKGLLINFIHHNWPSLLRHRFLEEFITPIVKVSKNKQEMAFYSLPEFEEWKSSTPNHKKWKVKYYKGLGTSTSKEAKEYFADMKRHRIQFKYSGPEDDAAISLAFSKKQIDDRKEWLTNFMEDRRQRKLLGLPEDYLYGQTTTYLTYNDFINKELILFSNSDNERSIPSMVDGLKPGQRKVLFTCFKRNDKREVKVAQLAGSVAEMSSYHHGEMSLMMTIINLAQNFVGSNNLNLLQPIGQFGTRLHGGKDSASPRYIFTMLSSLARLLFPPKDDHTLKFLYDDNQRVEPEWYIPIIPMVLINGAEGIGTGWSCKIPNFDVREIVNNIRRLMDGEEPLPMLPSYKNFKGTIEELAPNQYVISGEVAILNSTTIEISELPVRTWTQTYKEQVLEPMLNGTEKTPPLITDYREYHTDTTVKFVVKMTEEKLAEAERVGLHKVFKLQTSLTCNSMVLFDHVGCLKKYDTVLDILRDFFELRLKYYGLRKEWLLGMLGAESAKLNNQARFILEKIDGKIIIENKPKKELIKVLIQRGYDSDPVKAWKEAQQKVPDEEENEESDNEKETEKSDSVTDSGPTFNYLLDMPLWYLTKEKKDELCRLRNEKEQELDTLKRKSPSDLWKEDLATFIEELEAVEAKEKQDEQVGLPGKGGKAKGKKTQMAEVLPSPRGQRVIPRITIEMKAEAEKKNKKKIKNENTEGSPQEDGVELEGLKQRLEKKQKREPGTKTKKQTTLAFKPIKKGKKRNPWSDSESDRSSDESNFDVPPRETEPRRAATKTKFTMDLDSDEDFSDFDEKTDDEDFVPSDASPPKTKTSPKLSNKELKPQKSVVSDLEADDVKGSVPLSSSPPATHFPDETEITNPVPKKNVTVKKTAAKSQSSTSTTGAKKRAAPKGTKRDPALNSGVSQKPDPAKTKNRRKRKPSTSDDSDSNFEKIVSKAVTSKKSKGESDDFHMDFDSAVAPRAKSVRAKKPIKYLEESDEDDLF
Active and inactive are the calls of the source. No cut-off for these calls is given here.

| SMILES STRING | Activity |
| --- | --- |
| COc1cccc2c1C(=O)c1c(O)c3c(c(O)c1C2=O)C[C@@](O)(C(=O)CO)C[C@@H]3O[C@H]1C[C@H](N(C)C)[C@H](O[C@H]2C[C@H](O)[C@H](O)[C@H](C)O2)[C@H](C)O1 | Active |
| CC[C@@]1(O)C[C@H](O[C@H]2C[C@H](N)[C@H](O[C@H]3C[C@H](O)[C@H](O[C@H]4CCC(=O)[C@H](C)O4)[C@H](C)O3)[C@H](C)O2)c2c(cc3c(c2O)C(=O)c2c(O)cccc2C3=O)[C@H]1C(=O)OC | Active |
| COc1cccc2c1C(=O)c1c(O)c3c(c(O)c1C2=O)C[C@@](O)(C(=O)CO)C[C@@H]3O[C@H]1C[C@H](N)[C@H](O[C@H]2C[C@H](O)[C@H](O[C@H]3CCC(=O)[C@H](C)O3)[C@H](C)O2)[C@H](C)O1 | Active |
| CC[C@@]1(O)C[C@H](O[C@H]2C[C@H](N)[C@H](O)[C@H](C)O2)c2c(cc3c(c2O)C(=O)c2c(O)cccc2C3=O)[C@H]1C(=O)OC | Active |
